tested on: HCC-2998 colon; assay: NCI tumour cell line growth inhibition, 48 h; in the data active = GI50 below about 0.43 µM; inactive = the rest
# output must be one of true (1) (active), false (0) (inactive)

Field: example entries. Status: answers known.
• CCOC(=O)C(Cc1c[nH]c2c(N(CCO)CCO)cccc12)(NC(C)=O)C(=O)OCC = false (0)
• OCc1ccc(N2CCc3cccc(F)c3C2)cc1Cl = false (0)

Consider the record given below.
Status in this test for C=C(CC(NC(=O)c1ccc(C(CC)Cc2cnc3nc(N)nc(N)c3n2)cc1)C(=O)O)C(=O)O (stereo not drawn) ?
true (1)

====

test system: LXFL 529 NSCLC; assay: NCI tumour cell line growth inhibition, 48 h
TGI reference

Previously resolved entries follow.
* CCOc1ccc2[nH]c3c(C)c4ccncc4c(C)c3c2c1 | 1.98 µM
* CCNC(=O)COc1ccc(Br)cc1Br | > 100 µM

State the recorded TGI for this entry: C=C(CC(NC(=O)c1ccc(C(CC)Cc2cnc3nc(N)nc(N)c3n2)cc1)C(=O)O)C(=O)O (stereo not drawn)
> 100 µM

Another compound: NCCSSCCN
> 100 µM

What about O=C(c1nc2ccc([N+](=O)[O-])cc2[nH]c1=O)C(O)c1ccc2c(c1)OCO2 (stereo not drawn) ?
> 100 µM

Can you handle C#Cc1cccc(N2C(=O)c3c(c(-c4ccccc4)c(-c4ccc(Cc5ccc(-c6c(-c7ccccc7)c7c(c(-c8ccccc8)c6-c6ccccc6)C(=O)N(c6cccc(C#C)c6)C7=O)cc5)cc4)c(-c4ccccc4)c3-c3ccccc3)C2=O)c1 next?
> 100 µM

Try this compound too: CC1/C=C/[C@@]2(C)CCC(C(C)(C)O)C2C(O)C[C@](C)(O)/C=C/C1 (stereo partly drawn)
> 100 µM

Continue with CC(Oc1ccc2c(-c3ccccc3)cc(=O)oc2c1)C(=O)O (stereo not drawn)
> 100 µM

====

tested on: A549 NSCLC; experiment: NCI tumour cell line growth inhibition, 48 h
ENDPOINT_LABEL: TGI

Below are worked cases with known answers.
• C=C1C(=O)O[C@H]2C[C@@]3(COC(C)=O)C=COC=C(COC(=O)C(C)C)C3CC12 (stereo partly specified) = > 100 µM
• O=C(NOC[C@H](O)CO)c1ccc(F)c(F)c1Nc1ccc(I)cc1F = > 100 µM

Notebook: pull reported TGI for A549 NSCLC, entry COC12CCC(=O)C=C1c1ccccc1N2C(C)=O (stereo unspecified)
> 100 µM

Queued: C=CCNc1nc2c(s1)C(=O)c1ccccc1C2=O
19.3 µM

Same again, this time with CS(=O)(=O)OCCN(CCOS(C)(=O)=O)c1ccc(C=Nc2cccc(Cl)c2)cc1
29.2 µM

// next record COc1ccc(NC(=O)CSC2=C(Nc3cccc(Br)c3)C(=O)N(Cc3ccccc3)C2=O)cc1Cl
> 100 µM

# repeat for COc1ccc2cc(/C=C/C(=O)c3ccc(Cl)cc3Cl)ccc2c1
> 100 µM

Also check [O-][N+](=Nc1ccccc1CO)c1ccccc1CO
> 100 µM

Now the compound CC1=NC2=Nc3nc(C)cc[n+]3CN2C=C1
> 100 µM

Item: c1cc2c(s1)-c1sccc1C21OCCO1
> 100 µM

Let us now turn to CCOC(=O)C(Cc1c[nH]c2c(N(CCO)CCO)cccc12)(NC(C)=O)C(=O)OCC
> 1000 µM
